Reported Morningglory plant response rating values are given for each entry in this list.
- Test system: morningglory
- assay.remarks: Test A pre-/postemergence greenhouse test
- Type: in vivo, Ipomoea spp.
- experimental.parameters: Preemergence, 500 g ai/ha; 0 to 100 scale, 0 no effect, 100 complete control

Use the examples below as a reference point.
> print(dat)
                                   molecule  value.reported
1  CCc1cc[n+]([O-])c([S+]([O-])Cc2c(C(F)(F)F)nn(C)c2OC(F)F)c1 (stereo not drawn)             100
2  Cn1nc(C(F)(F)C(F)(F)F)c(CS(=O)(=O)c2ccc(Cl)c[n+]2[O-])c1OCC(F)(F)F              10

Consider the record given below.
Enquiry: Please look up its Morningglory plant response rating: "Cn1nc(C(F)(F)F)c(CS(=O)(=O)c2cc(C3CC3)cc[n+]2[O-])c1OCC(F)(F)F"
Return: 80

---

- Test system: pigweed
- assay.remarks: Test C pre-/postemergence test
- Format: in vivo, Amaranthus retroflexus
- experimental.parameters: 31 g ai/ha, Preemergence; scale 0 to 100
Reported Pigweed plant response rating values are given for each entry in this list.
API doc: respond with a numeric literal and nothing else, no unit.

Use the examples below as a reference point.
> print(dat)
                                   compound              reported.endpoint  value.reported
1  Cn1nc(C(F)(F)F)c(C(Cl)S(=O)(=O)c2cccc[n+]2[O-])c1Cl (stereo not shown)  Pigweed plant response rating             100
2  CC(c1c(C(F)(F)F)nn(C)c1OC(F)F)S(=O)(=O)c1cccc[n+]1[O-] (stereo not shown)  Pigweed plant response rating             100
3  Cc1cc[n+]([O-])c(S(=O)(=O)Cc2c(C(F)(F)F)nn(C)c2OC(F)F)c1  Pigweed plant response rating             100

Consider the record given below.
Enquiry: Please look up its Pigweed plant response rating: CC(c1c(C(F)(F)F)nn(C)c1Cl)S(=O)(=O)c1cccc[n+]1[O-] (stereo not shown)
Return: 70

---

Reported Horseweed plant response rating values are given for each entry in this list.
- Tested on: Canada horseweed
- assay.remarks: Test F preemergence test
- Type: in vivo, Conyza canadensis
- experimental.parameters: 62 g ai/ha, Preemergence; scale 0 to 100
API doc: respond with a numeric literal and nothing else, no unit.

Use the examples below as a reference point.
> print(dat)
                                   molecule                reported.endpoint  value.reported
1  Cn1nc(C(F)(F)F)c(C[S+]([O-])c2ccc(Cl)c[n+]2[O-])c1OCC(F)(F)F (racemic) [Compound 62]  Horseweed plant response rating             100
2  CC(Oc1c(C[S+]([O-])c2cccc[n+]2[O-])c(C(F)(F)F)nn1C)C(F)(F)F (stereo not shown) [Compound 77]  Horseweed plant response rating              98
3  Cc1cc[n+]([O-])c(S(=O)(=O)Cc2c(C(F)(F)F)nn(C)c2Cl)c1 [Compound 19]  Horseweed plant response rating               0

Consider the record given below.
Enquiry: Please look up its Horseweed plant response rating: Cn1nc(C(F)(F)F)c(C[S+]([O-])c2ccc(F)c[n+]2[O-])c1OC(F)F (stereo not shown) [Compound 58]
Return: 98
